experimental_system: rat mGluR5 receptor (Rattus norvegicus)
Construct: expressed in transfected cells; host or cells: HEK-293
procedure_details: [3H]-MPEP displacement binding assay, HEK-293 cell membranes expressing rat mGluR5
reported_conditions: [3H]-MPEP 4 nM; Table 7A; read-out: Median Ki
experimental_endpoint: pKi
# log scale: pKi equals minus log10 of the concentration in mol/L

Enquiry: Data request, read-out pKi, for COc1ccc(C(=O)N2CCN(c3ccccn3)CC2)cc1/C=C/c1ccccc1
Return: 6.08

* * *

experimental_system: rat mGluR5 receptor (Rattus norvegicus, UniProt P31424)
Construct: expressed in transfected cells; host or cells: HEK-293
Sequence (P31424 21-1203): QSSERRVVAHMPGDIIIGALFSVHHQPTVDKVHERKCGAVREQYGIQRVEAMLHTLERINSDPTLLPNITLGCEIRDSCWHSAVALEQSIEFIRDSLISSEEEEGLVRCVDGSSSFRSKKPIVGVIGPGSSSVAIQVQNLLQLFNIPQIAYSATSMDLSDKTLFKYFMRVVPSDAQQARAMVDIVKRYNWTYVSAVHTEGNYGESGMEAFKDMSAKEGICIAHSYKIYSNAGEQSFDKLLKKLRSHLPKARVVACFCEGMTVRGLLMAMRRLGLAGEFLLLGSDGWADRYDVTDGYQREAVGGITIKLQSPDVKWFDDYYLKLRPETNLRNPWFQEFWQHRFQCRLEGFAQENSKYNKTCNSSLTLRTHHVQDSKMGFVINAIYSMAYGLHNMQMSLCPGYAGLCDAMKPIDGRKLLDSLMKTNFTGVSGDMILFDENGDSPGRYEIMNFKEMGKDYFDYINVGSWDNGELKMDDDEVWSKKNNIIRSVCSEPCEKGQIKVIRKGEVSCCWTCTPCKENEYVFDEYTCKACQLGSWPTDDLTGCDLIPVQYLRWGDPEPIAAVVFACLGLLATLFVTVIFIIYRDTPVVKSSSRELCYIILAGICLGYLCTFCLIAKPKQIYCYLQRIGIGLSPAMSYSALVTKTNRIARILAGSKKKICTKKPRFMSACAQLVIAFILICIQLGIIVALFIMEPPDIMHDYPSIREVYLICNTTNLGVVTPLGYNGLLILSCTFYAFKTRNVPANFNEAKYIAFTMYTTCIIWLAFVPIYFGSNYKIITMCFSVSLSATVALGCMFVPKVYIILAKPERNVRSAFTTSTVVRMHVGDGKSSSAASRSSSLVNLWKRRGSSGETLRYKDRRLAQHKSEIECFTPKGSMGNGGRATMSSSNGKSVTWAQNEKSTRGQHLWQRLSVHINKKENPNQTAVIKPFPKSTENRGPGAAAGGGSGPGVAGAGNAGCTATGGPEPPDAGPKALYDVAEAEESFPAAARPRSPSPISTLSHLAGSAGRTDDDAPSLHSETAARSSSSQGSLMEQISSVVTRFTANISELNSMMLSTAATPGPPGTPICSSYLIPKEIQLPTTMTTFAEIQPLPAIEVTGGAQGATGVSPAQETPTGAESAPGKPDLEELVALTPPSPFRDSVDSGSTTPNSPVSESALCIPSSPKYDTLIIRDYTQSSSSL
procedure_details: [3H]-MPEP displacement binding assay, HEK-293 cell membranes expressing rat mGluR5
reported_conditions: @ 10 μM compound; Biological Activity, Table 2A; read-out: PCT INHIB (%) @ 10 μM
experimental_endpoint: inhibition at 10 µM (%)
Provide the reading as a plain figure in %.

Enquiry: Data request, read-out inhibition at 10 µM, for O=C(c1cccc(C#Cc2ccccc2)c1)N1CCN(c2ccc(C(F)(F)F)cn2)CC1
Return: 0

Enquiry: Data request, read-out inhibition at 10 µM, for O=C(c1ccc(F)c(C#Cc2ccccc2)c1)N1CCN(c2ccccn2)CC1
Return: 51

Enquiry: Data request, read-out inhibition at 10 µM, for Cc1cc(C)nc(N2CCN(C(=O)c3cncc(C#Cc4ccccc4)c3)CC2)n1
Return: 0

Enquiry: Data request, read-out inhibition at 10 µM, for O=C(c1cccc(C#Cc2ccccc2)c1)N1CCN(c2ccc(F)cc2)CC1
Return: 28

Enquiry: Data request, read-out inhibition at 10 µM, for COc1ccc(C(=O)N2CCN(c3ccc(C#N)cn3)CC2)cc1C#Cc1ccccc1
Return: 81

Enquiry: Data request, read-out inhibition at 10 µM, for O=C(c1cccc(C#Cc2ccccn2)c1)N1CCN(c2ncc(C(F)(F)F)cc2Cl)CC1
Return: 72

Enquiry: Data request, read-out inhibition at 10 µM, for COc1ccc(C(=O)N2CCN(c3ccncc3)CC2)cc1C#Cc1ccccc1
Return: 91

Enquiry: Data request, read-out inhibition at 10 µM, for O=C(c1cccc(C#Cc2ccccc2)c1)N1CCN(c2cccc(C(F)(F)F)c2)CC1
Return: 32

Enquiry: Data request, read-out inhibition at 10 µM, for COc1ccc(C(=O)N2CCN(c3cccc(C)n3)CC2)cc1C#Cc1ccccc1
Return: 77

Enquiry: Data request, read-out inhibition at 10 µM, for O=C(c1cccc(C#Cc2ccccc2)c1)N1CCN(c2ccc(C(F)(F)F)cc2)CC1
Return: 0

Enquiry: Data request, read-out inhibition at 10 µM, for O=C(c1cccc(C#Cc2ccccc2)c1)N1CCN(c2cccc(Cl)c2)CC1
Return: 58

Enquiry: Data request, read-out inhibition at 10 µM, for Cc1ccc(N2CCN(C(=O)c3cccc(C#Cc4ccccc4)c3)CC2)cc1
Return: 0

Enquiry: Data request, read-out inhibition at 10 µM, for O=C(c1cccc(C#Cc2ccccc2)c1)N1CCN(c2ccncc2)CC1
Return: 53

Enquiry: Data request, read-out inhibition at 10 µM, for O=C(c1cccc(C#Cc2ccccn2)c1)N1CCN(c2cnccn2)CC1
Return: 79

Enquiry: Data request, read-out inhibition at 10 µM, for COc1ccc(C(=O)N2CCN(c3nc(C)cc(C)n3)CC2)cc1C#Cc1ccccc1
Return: 35

Enquiry: Data request, read-out inhibition at 10 µM, for Cc1ccnc(N2CCN(C(=O)c3cncc(C#Cc4ccccc4)c3)CC2)c1
Return: 52

Enquiry: Data request, read-out inhibition at 10 µM, for O=C(c1cccc(C#Cc2ccccc2)c1)N1CCN(c2ncccc2C(F)(F)F)CC1
Return: 45

Enquiry: Data request, read-out inhibition at 10 µM, for O=C(c1ccnc(C#Cc2ccccc2)c1)N1CCN(c2ccncc2)CC1
Return: 10

Enquiry: Data request, read-out inhibition at 10 µM, for O=C(c1cncc(C#Cc2ccccc2)c1)N1CCN(c2cnccn2)CC1
Return: 32

Enquiry: Data request, read-out inhibition at 10 µM, for O=C(c1cccc(C#Cc2cccnc2)c1)N1CCN(c2ccccn2)CC1
Return: 26

Enquiry: Data request, read-out inhibition at 10 µM, for O=C(c1cccc(C#Cc2ccccn2)c1)N1CCN(c2nccc(-c3ccccc3)n2)CC1
Return: 86

Enquiry: Data request, read-out inhibition at 10 µM, for O=C(c1ccnc(C#Cc2ccccc2)c1)N1CCN(c2cccc(C(F)(F)F)n2)CC1
Return: 54

Enquiry: Data request, read-out inhibition at 10 µM, for N#Cc1cccnc1N1CCN(C(=O)c2cncc(C#Cc3ccccc3)c2)CC1
Return: 28

Enquiry: Data request, read-out inhibition at 10 µM, for CC1CN(C(=O)c2cccc(C#Cc3ccccn3)c2)CCN1c1ccccn1 (centres unmarked)
Return: 58

Enquiry: Data request, read-out inhibition at 10 µM, for CSc1ccccc1N1CCN(C(=O)c2cccc(C#Cc3ccccc3)c2)CC1
Return: 24

Enquiry: Data request, read-out inhibition at 10 µM, for O=C(c1cccc(C#Cc2ccccc2)c1)N1CCN(c2ccccc2)CC1
Return: 86

Enquiry: Data request, read-out inhibition at 10 µM, for Cc1cccc(C)c1N1CCN(C(=O)c2cccc(C#Cc3ccccc3)c2)CC1
Return: 53

Enquiry: Data request, read-out inhibition at 10 µM, for COc1ccc(N2CCN(C(=O)c3cccc(C#Cc4ccccc4)c3)CC2)cc1
Return: 40

Enquiry: Data request, read-out inhibition at 10 µM, for O=C(c1cccc(C#Cc2ccccc2)c1)N1CCN(c2cc(Cl)cc(Cl)c2)CC1
Return: 0

Enquiry: Data request, read-out inhibition at 10 µM, for O=C(c1cccc(C#Cc2ccccn2)c1)N1CCN(c2cncc(Cl)n2)CC1
Return: 71

Enquiry: Data request, read-out inhibition at 10 µM, for O=C(c1cncc(C#Cc2ccccc2)c1)N1CCN(c2ccncc2)CC1
Return: 0

Enquiry: Data request, read-out inhibition at 10 µM, for COc1ccc(C(=O)N2CCN(c3ccc(C(F)(F)F)cn3)CC2)cc1C#Cc1ccccc1
Return: 26

Enquiry: Data request, read-out inhibition at 10 µM, for O=C(c1cccc(C#Cc2ccccn2)c1)N1CCN(c2ncc(O)cn2)CC1
Return: 64

Enquiry: Data request, read-out inhibition at 10 µM, for CN1CCN(C(=O)c2cccc(C#Cc3ccccc3)c2)CC1
Return: 0

Enquiry: Data request, read-out inhibition at 10 µM, for CC1CN(c2ccccn2)CCN1C(=O)c1cccc(C#Cc2ccccn2)c1 (centres unmarked)
Return: 72

* * *

experimental_system: mGluR5 (Rattus norvegicus, UniProt P31424)
Sequence (P31424 21-1203): as above
procedure_details: IC50 column under 'Biological Activity' (assay not identified in the shown text; not the binding Ki)
Could you please report measured IC50 for the items listed next?
Provide the reading as a plain figure in nM.

Enquiry: Data request, read-out IC50, for COc1ccc(C(=O)N2CCN(c3cccc(F)c3)CC2)cc1C#Cc1ccccn1
Return: 103

Enquiry: Data request, read-out IC50, for COc1ccc(C(=O)N2CCN(S(=O)(=O)c3ccc(C)cc3)CC2)cc1C#Cc1ccccn1
Return: 180

Enquiry: Data request, read-out IC50, for COc1ccc(C(=O)N2CCN(c3ncccn3)CC2)cc1C#Cc1ccccn1
Return: 72

Enquiry: Data request, read-out IC50, for COc1ccc(C(=O)N2CCN(c3nnc(Cl)c4ccccc34)CC2)cc1C#Cc1ccccn1
Return: 356

Enquiry: Data request, read-out IC50, for COc1ccc(C(=O)N2CCN(c3nccnc3Cl)CC2)cc1C#Cc1ccccn1
Return: 408

* * *

experimental_system: mGluR5 (Rattus norvegicus)
procedure_details: IC50 column under 'Biological Activity' (assay not identified in the shown text; not the binding Ki)
Could you please report measured log10(IC50) for the items listed next?
Scale: decimal log of IC50, IC50 in nM.

Enquiry: Data request, read-out log10(IC50), for COc1ccc(C(=O)N2CCN(c3cccc(C)c3)CC2)cc1C#Cc1ccccn1 [Compound 196]
Return: 1.81

Enquiry: Data request, read-out log10(IC50), for COc1ccc(C(=O)N2CCN(c3ccc(Cl)cc3)C(=O)C2)cc1C#Cc1ccccn1 [Compound 326]
Return: 1.46

Enquiry: Data request, read-out log10(IC50), for COc1ccc(C(=O)N2CCN(c3ncccc3Cl)CC2)cc1C#Cc1ccccn1 [Compound 186]
Return: 1.57

Enquiry: Data request, read-out log10(IC50), for COc1ccc(C(=O)N2C[C@H]3C[C@H]2CN3c2cccc(F)c2)cc1C#Cc1ccccn1 [Compound 207]
Return: 2.49

Enquiry: Data request, read-out log10(IC50), for O=C(c1ccc(OC(F)(F)F)c(C#Cc2ccccn2)c1)N1CCN(c2cnccn2)CC1 [Compound 335]
Return: 2.44

Enquiry: Data request, read-out log10(IC50), for COc1ccc(C(=O)N2CCN(c3ncc(C(F)(F)F)cc3Cl)CC2)cc1C#Cc1ccccn1 [Compound 190]
Return: 2.61

Enquiry: Data request, read-out log10(IC50), for COc1ccc(C(=O)N2CCN(c3ncc(Br)cn3)CC2)cc1C#Cc1ccccn1 [Compound 262]
Return: 2.17

Enquiry: Data request, read-out log10(IC50), for COc1ccc(C(=O)N2CCN(c3nnc(C(F)(F)F)s3)CC2)cc1C#Cc1ccccn1 [Compound 206]
Return: 2.47

Enquiry: Data request, read-out log10(IC50), for COc1ccc(C(=O)N2CCN(c3cccc(Cl)c3)CC2)cc1C#Cc1ccccn1 [Compound 189]
Return: 2.17

Enquiry: Data request, read-out log10(IC50), for COc1ccc(C(=O)N2CCN(c3ccc(F)cc3)CC2)cc1C#Cc1ccccn1 [Compound 231]
Return: 2.39

Enquiry: Data request, read-out log10(IC50), for COc1ccnc(N2CCN(C(=O)c3ccc(C)c(C#Cc4ccccn4)c3)CC2)n1 [Compound 308]
Return: 2.03

Enquiry: Data request, read-out log10(IC50), for COc1ccc(C(=O)N2CCN(c3ccc(Cl)cn3)CC2)cc1C#Cc1ccccn1 [Compound 188]
Return: 1.93
